STUDY_SYSTEM: T1, ENAH EVH1 domain with Arg47 mutated to Ala (human, UniProt Q03173 1-111 (mouse entry))
T1 construct: also called ENAH R47A; ENAH EVH1 R47A
T1 sequence (Q03173 other isoform, or with tags, fused parts or gaps limits assumed, stated change not applied): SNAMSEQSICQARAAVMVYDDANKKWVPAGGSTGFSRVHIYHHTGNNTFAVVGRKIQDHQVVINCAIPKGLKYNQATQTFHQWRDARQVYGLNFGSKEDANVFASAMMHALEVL
TEST_NAME: BLI, steady state; SUMO-peptide immobilised, EVH1 monomer in solution
log10 of Kd reference
ENDPOINT_LABEL: log10 of Kd (log10 of the value in µM)

BINDER	log10 of Kd
Zyxin 36-mer peptide (biotinylated (BAP tag), Tested as a biotinylated BAP-6xHis-SUMO-peptide fusion) peptide: MAGGLNDIFEAQKIEWHEDTGGSSHHHHHHGSGSGSDSEVNQEAKPEVKPEVKPETHINLKVSDGSSEIFFKIKKTTPLRRLMEAFAKRQGKEMDSLTFLYDGIEIQADQTPEDLDMEDNDIIEAHREQIGGSGSGALGGAFPPPPPPIEESFPPAPLEEEIFPSPPPPPEE	1.74
PCARE 36-residue peptide (PCARE813-848) (biotinylated (BAP tag), Tested in BLI as a biotinylated BAP-6xHis-SUMO-peptide fusion; also called PCARE 36-mer) peptide: MAGGLNDIFEAQKIEWHEDTGGSSHHHHHHGSGSGSDSEVNQEAKPEVKPEVKPETHINLKVSDGSSEIFFKIKKTTPLRRLMEAFAKRQGKEMDSLTFLYDGIEIQADQTPEDLDMEDNDIIEAHREQIGGSGSGAAKSEELSCEMEGNLEHLPPPPMEVLMDKSFASLES	-0.48
NHSL1 36mer peptide (biotinylated (BAP tag), Tested as a BAP-6xHis-SUMO-peptide fusion in BLI and ITC) peptide: MAGGLNDIFEAQKIEWHEDTGGSSHHHHHHGSGSGSDSEVNQEAKPEVKPEVKPETHINLKVSDGSSEIFFKIKKTTPLRRLMEAFAKRQGKEMDSLTFLYDGIEIQADQTPEDLDMEDNDIIEAHREQIGGSGSGADRSPFLPPPPPVTDCSQGSPLPHSPVFPPPPPEAL	1.74
SUMO-ActA (ActA 36-mer peptide fused to SUMO) (biotinylated (BAP tag), Control peptide used in BLI and ITC; also called ActA peptide) peptide: MAGGLNDIFEAQKIEWHEDTGGSSHHHHHHGSGSGSDSEVNQEAKPEVKPEVKPETHINLKVSDGSSEIFFKIKKTTPLRRLMEAFAKRQGKEMDSLTFLYDGIEIQADQTPEDLDMEDNDIIEAHREQIGGGFNAPATSEPSSFEFPPPPTEDELEIIRETASSLDS	0.90
LPP 36mer peptide (biotinylated (BAP tag), Tested as a BAP-6xHis-SUMO-peptide fusion in BLI and ITC) peptide: MAGGLNDIFEAQKIEWHEDTGGSSHHHHHHGSGSGSDSEVNQEAKPEVKPEVKPETHINLKVSDGSSEIFFKIKKTTPLRRLMEAFAKRQGKEMDSLTFLYDGIEIQADQTPEDLDMEDNDIIEAHREQIGGSGSGKQPGGEGDFLPPPPPPLDDSSALPSISGNFPPPPPL	1.79

Values were extracted from patent US12552834.
